- studyTarget: T1, PUF4 RNA-binding domain (Saccharomyces cerevisiae, UniProt P25339 537-888)
- T1 sequence: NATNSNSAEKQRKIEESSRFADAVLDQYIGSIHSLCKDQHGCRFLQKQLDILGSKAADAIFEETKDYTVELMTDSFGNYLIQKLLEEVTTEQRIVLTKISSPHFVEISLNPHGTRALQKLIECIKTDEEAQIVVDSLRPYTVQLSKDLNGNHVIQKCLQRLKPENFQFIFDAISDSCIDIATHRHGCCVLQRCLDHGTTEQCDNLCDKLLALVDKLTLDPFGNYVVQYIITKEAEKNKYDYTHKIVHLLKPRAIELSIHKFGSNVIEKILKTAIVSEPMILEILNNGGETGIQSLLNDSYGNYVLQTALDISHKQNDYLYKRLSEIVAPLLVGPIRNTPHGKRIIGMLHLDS
- testMethodNotes: Mg; RNA-MaP; 20 mM Na-HEPES pH 7.4, 30 mM KOAc, 0.75 mM MgCl2, 0.1% Tween-20, 5% glycerol, 0.1 mg/mL BSA, 2 mM DTT; 25 C; 0.0125-409.6 nM protein
- conditionDescription: tags: N-His6-TEV cleaved; C-SNAP kept, Cy3B-labelled; label: tethered on chip by stalled RNA polymerase
Kindly apply the following: Fulfilled if Kd is less than 10 nM, Not fulfilled in every other case.

Id_ii_S4_P4E.2_K4.1_C4.2_[C-2A]_[T-1C]_H4.1_A4.1_F4.1_T4.2_[G10T]_[T11A] (ssRNA) RNA: UUUGACAACUGAUCGUUCUUUCUACUGUAUAUUAUAUUCUUUCUCGAUCAGUUGUCUUU    Fulfilled
Id_iii_S2_P4E.5_K4.1_C4.3_[T-1C]_H4.1_A4.1_F4.1_T4.2 (ssRNA) RNA: UUUGAUUAAUAUGAUAUCGUUCUUUCUUCCUGUAUAUUAGUUUCUUUCUCGAUAUCAUAUUAAUCUUU    Fulfilled
Ic_S2_P3E.1_K3.1_C3.1_H3.1_A3.1_[T5C]_F3.1_[A8C]_T3.1 (ssRNA) RNA: UUUGAUUAAUAUGAUAUCGUUCUUUCUUGUACAUCUUCUUUCUCGAUAUCAUAUUAAUCUUU    Not fulfilled
UCUCUUAGACACUAUUAAUUCUCUU (ssRNA) [Id_ii_S1_P4E.4_K4.3_C4.2_[C-2A]_[T-1G]_H4.3_A4.1_F4.1_T4.2_[G10A]]    Not fulfilled
Id_ii_S2_P4E.3_K4.2_C4.2_[C-2A]_[T-1C]_H4.2_A4.1_F4.1_T4.2_[G10T]_[T11C] (ssRNA) RNA: UUUGAUUAAUAUGAUAUCGUUCUUUCUACUAUAUAUUAUCUUCUUUCUCGAUAUCAUAUUAAUCUUU    Not fulfilled
Ie_S2_P3E.2_K3.1_C3.2_H3.1_[+1CCC]_A3.1_F3.1_T3.2 (ssRNA) RNA: UUUGAUUAAUAUGAUAUCGUUCUUUCUCUUCCCGUAUAUAUAUUCUUUCUCGAUAUCAUAUUAAUCUUU    Not fulfilled

Hello, I'm reviewing records and need to know if Kd of Id_ii_S2_P4E.4_K4.3_C4.2_[T-1C]_H4.3_A4.1_F4.1_T4.2 (ssRNA) RNA: UUUGAUUAAUAUGAUAUCGUUCUUUCUCCACACUAUUAGUUUCUUUCUCGAUAUCAUAUUAAUCUUU is below 10 nM. Could you check? Not fulfilled

is_below(Kd, 10 nM) for Ie_S2_P4E.1_K4.1_C4.1_H4.1_[+3CTC]_A4.1_F4.1_T4.1 (ssRNA) RNA: UUUGAUUAAUAUGAUAUCGUUCUUUCUUGUCUCAUAUUAUUCUUUCUCGAUAUCAUAUUAAUCUUU ? Fulfilled

In plain terms, does Ic_S2_P5E.1_K5.1_C5.1_H5.1_A5.1_[T5C]_[A7G]_F5.1_[T9A]_[A10T]_T5.1 (ssRNA) RNA: UUUGAUUAAUAUGAUAUCGUUCUUUCUUGUACUGUAUUUCUUUCUCGAUAUCAUAUUAAUCUUU come in under 10 nM for Kd? Fulfilled

A record lists UCUCUUUGUAUAUCUCUUAUCUCUU (ssRNA) [Ie_S1_P4E.1_K4.1_C4.1_H4.1_A4.1_[+6TCTC]_F4.1_T4.1] . Is its Kd below 10 nM? Not fulfilled

Given the entry Id_ii_S2_P5E.4_K5.3_C5.2_[C-2A]_H5.3_A5.1_F5.1_T5.2_[T11G]_[A12C] (ssRNA) RNA: UUUGAUUAAUAUGAUAUCGUUCUUUCUAUACACUUAUUAGCUUCUUUCUCGAUAUCAUAUUAAUCUUU , would its reported Kd be below 10 nM? Not fulfilled
